# assayed_target: human FLT3 on transfected CHO cells (human) (UniProt P36888)
# test_description: FACS, scFv on CHO-human FLT3 cells pre-incubated with FLT3 ligand (competitor)
// reported median [+ligand]/median [w/o ligand]*100 per item

[
  {
    "binder": "FL-64 (scFv) scFv: QVQLVESGGGVVQPGRSLRLSCAASGFTFSSYGMHWVRQAPGKGLEWVAVISYDGSNEFYADSVKGRFTISRDNSKNTLYLQMNSLRAEDTAVYYCARGGEITMVRGVIGYYYYGMDVWGQGTTVTVSSGGGGSGGGGSGGGGSDIQMTQSPSSLSASVGNRVTITCRASQSISSYLNWYQQKPGKAPKLLIYAASSLQSGVPSRFSGSGSGTEFTLTISSLQPEDFATYYCLQHNSYPLTFGGGTKVDIK",
    "median [+ligand]/median [w/o ligand]*100": "> 75%"
  },
  {
    "binder": "FL-28 (scFv) scFv: QVTLKESGPVLVKPTETLTLTCTVSGFSFRNARMGVSWIRQPPGKALEWLAHIFSNDEKSYSTSLKSRLTISKDTSKSQVVLTLTNMDPVDTATYFCARMPEYSSGWSGAFDIWGQGTMVTVSSGGGGSGGGGSGGGGSDIQMTQSPSSLSASVGDRVTITCRASQGIGDDLGWYQQIPGKAPKRLIYATSVLQSGVPSRFSGSGSGTEFTLTISSLQPEDFATYYCLQHNSYPLTFGGGTKVEIK",
    "median [+ligand]/median [w/o ligand]*100": "> 75%"
  }
]

## Task Please report median [+ligand]/median [w/o ligand]*100 for the following binder: FL-61 (scFv) scFv: QVQLVESGGGVVQPGRSLRLSCAASGFTFSSYGMHWVRQAPGKGLEWVAVISYDGSNEFYADSVKGRFTISRDNSKNTLYLQMNSLRAEDTAVYYCARGGEITMVRGVIGYYYYGMDVWGQGTTVTVSSGGGGSGGGGSGGGGSDIQMTQSPSSLSASVGDRVTITCRASQSISSYLNWYQQKPGKAPKLLIYAASSLQSGVPSRFSGSGSGTEFTLTISSLQPEDFATYYCLQHNSYPLTFGGGTKVEIK
## Result > 75%
